Target: pooled human IgG (human IgG1,2,3 and 4)
quantity: Enzyme Activity Endpoint Assay (purified): Fab′2
Enter the number, and then the unit.

Query block: So what does the record say about Enzyme Activity Endpoint Assay (purified): Fab′2 for PRT-347 (protein) MSQTEDSESLQRLRDIEDFQAEKEMQNVVYTKWLDGVDVKDHDFRKIVDGNSAYYATPLLNGRGWYDINKDFNRDSDKCAAAVAANMFHYWLDINRDNVDRFLRQNPEKHGIIELPDGQLKLSDFLNTYESDHGYRDKSKLFDFISNNFNGPVWTDKLLDNYINGYAYNYKYGRTIEDPTKNTSKINFFKEVFNEKILTNNHSIRNQNEFSVLLSEALYTGKAIGLSYGPAGLRHSLGHIISVWGADLDADGNVVAIYVTDSDDKKLTIGDERVGLKRYKISTDDENRLRLTAYEETHNTGGQVRGLWTLDTGKYAWADYFDKTEQTGTDQAEQ ?
Result block: 769 ng/µL
